phosphorylation enrichment listing for selected sequences.
# ASSAYED TARGET: EPHB2 (UniProt P29323)
# Sequence (P29323 whole entry, looked up): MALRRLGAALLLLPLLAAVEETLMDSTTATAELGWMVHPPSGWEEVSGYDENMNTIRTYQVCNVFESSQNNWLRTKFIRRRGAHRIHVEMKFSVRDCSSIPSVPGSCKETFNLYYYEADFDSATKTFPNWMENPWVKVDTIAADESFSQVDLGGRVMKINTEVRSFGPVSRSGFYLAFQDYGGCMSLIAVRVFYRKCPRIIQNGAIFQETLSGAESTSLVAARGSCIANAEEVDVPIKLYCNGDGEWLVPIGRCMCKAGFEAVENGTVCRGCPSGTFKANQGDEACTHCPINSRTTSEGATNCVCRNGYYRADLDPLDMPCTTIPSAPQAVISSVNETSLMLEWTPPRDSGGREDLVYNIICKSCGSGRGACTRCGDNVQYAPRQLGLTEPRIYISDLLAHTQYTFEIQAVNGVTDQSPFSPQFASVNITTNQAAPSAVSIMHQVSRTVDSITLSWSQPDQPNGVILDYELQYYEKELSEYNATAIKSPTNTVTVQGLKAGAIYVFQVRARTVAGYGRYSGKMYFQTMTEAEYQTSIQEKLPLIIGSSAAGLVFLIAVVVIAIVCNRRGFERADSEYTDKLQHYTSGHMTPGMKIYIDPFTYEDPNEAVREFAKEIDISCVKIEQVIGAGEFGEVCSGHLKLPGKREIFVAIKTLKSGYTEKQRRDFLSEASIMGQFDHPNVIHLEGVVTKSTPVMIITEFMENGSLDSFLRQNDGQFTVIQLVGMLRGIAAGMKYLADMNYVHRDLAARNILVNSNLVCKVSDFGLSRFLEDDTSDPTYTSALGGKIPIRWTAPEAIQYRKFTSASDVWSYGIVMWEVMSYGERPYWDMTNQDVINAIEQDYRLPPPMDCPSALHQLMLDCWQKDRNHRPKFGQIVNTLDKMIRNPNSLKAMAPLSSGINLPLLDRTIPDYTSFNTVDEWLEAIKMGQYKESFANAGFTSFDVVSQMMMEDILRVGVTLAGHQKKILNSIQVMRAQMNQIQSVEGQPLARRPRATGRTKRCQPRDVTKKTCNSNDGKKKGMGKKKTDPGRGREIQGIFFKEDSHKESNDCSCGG
# TEST PROTOCOL: phosphorylation enrichment, bacterial display (enrichment ratio); higher = better substrate or ligand; peptides without Tyr show the background;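 also: 11-residue human phosphosite peptides and single-mutation variants displayed on the E. coli surface, counted by deep sequencing, each peptide's frequency after selection divided by its frequency in the unselected input library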;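 also: frequency after pTyr selection over input frequency; kinase dosed for 20-30% of maximal phosphorylation in three min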

SEQUENCE ENTRY	phosphorylation enrichment
SDVDLYQVRIA [PSMD9_Y70_T74I]	0.497
MSSHHYDYKKY [ZNF445_Y428]	0.375
NHQFDYTFHWT [CSNK1A1_Y294_D297H_YF]	1.3
QMQNPYSSHSS [MUC13_Y501_R503S]	0.718
ETGEPCRLSPE [EIF4G1_Y311_Y311C]	0.674
CKLYQYYLDHL [ATRX_Y1849]	1.54
PSSRDYKDNIK [PIGN_Y227_H229D]	0.467
FIPFRYPKEFQ [IDS_Y234_H229Y_YF]	0.494
EQLQSYQVEII [KRT33A_Y268_A270V]	0.529
NNFGNYNNQSS [HNRNPA1_Y318_D314N]	0.393
YHLLPYTVRAM [PARS2_Y93]	1.47
TFGVLYKARNK [CDK2_Y19_V18L_YF]	0.599
SVTCPYSPALN [TP53_Y126_T125P]	0.573

---

# ASSAYED TARGET: FGFR3 (UniProt P22607)
# Sequence (P22607 whole entry, looked up): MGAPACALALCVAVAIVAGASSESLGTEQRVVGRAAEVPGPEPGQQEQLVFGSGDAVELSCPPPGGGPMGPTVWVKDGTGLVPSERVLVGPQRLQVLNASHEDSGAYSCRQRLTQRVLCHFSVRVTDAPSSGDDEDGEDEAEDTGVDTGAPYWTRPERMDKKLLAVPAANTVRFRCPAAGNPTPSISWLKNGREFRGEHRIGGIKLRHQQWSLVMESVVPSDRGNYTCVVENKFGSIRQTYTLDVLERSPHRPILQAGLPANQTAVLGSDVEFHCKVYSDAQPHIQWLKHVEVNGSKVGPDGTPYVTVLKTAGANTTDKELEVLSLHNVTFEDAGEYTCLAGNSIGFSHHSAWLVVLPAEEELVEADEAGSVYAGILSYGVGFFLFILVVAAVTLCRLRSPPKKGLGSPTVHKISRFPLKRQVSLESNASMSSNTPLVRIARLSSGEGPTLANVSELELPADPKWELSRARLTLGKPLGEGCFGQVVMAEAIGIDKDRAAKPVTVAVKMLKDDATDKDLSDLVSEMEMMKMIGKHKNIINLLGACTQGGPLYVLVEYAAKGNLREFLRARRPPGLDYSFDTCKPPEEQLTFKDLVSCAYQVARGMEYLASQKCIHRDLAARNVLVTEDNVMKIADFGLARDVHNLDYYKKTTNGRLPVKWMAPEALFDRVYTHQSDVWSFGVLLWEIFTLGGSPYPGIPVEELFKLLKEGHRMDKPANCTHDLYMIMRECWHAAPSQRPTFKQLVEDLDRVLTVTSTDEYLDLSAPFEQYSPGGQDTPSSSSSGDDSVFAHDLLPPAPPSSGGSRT
# TEST PROTOCOL: phosphorylation enrichment, bacterial display (enrichment ratio); higher = better substrate or ligand; peptides without Tyr show the background
Would you please tag the item Satisfied when its phosphorylation enrichment is 0.7 or above, and Not satisfied when it is below?

SEQUENCE ENTRY	GROUP LABEL
QEIATCRRLLE [KRT14_Y415_Y415C]	Not satisfied
FKEDPYLVVNP [MCM6_Y810_E806K_YF]	Satisfied
KWHREYNSKYV [RICTOR_Y835]	Not satisfied
AISEGYKDFRA [CDA_Y79_V75I]	Not satisfied
FLAVGYHKPYI [IDS_Y225_H229Y]	Not satisfied
ILGRYYETSSI [PAX2_Y73_G76S]	Satisfied
TGILLHGLASR [QARS1_Y57_Y57H]	Not satisfied
PIYEGYALPHA [ACTA1_Y171]	Satisfied
KDLPNYNWNSF [KISS1_Y112]	Not satisfied
TVNIRYLLFPS [SERAC1_Y548_S543T]	Satisfied
EQLQSYQVEII [KRT33A_Y268_A270V]	Satisfied
VIKDKYPKVRF [APTX_Y209_A212V_YF]	Not satisfied
GSIQQYIYKQE [PRG4_Y1271]	Not satisfied
GFILMYDITNE [RAB3C_Y110]	Satisfied
ARRHPYFYAPE [ALB_Y172]	Satisfied
QFFQGYFNNNF [ZNF236_Y644_S643G]	Satisfied
EWQQIYTYDSG [JUP_Y20_T19I]	Satisfied
VDASYYGGRGV [ANTXR2_Y381]	Not satisfied
LERYIYNREEF [HLA-DPB1_Y59]	Satisfied
FSNVLYRPRGP [TMIGD2_Y197_A202P_YF]	Not satisfied
QNTGYYYDLYG [PTPN11_Y62_D61Y]	Satisfied
EQSGSYIWVPA [DLG1_Y895]	Satisfied
IRKDLYSNNVL [ACTC1_Y296_A297S]	Not satisfied
DENWFYTRAAF [RPS19_Y54_S59F]	Satisfied
ANARMYGVLPW [PLP1_Y207_D203N]	Not satisfied
KNKKDYFDMFE [SLC26A3_Y526_YF]	Satisfied
FFSSEYHFVGG [CTSC_Y345_YF]	Satisfied
PSELFYSKIGP [SMG1_Y2254_YF]	Satisfied
PQEVTYAQLDH [KIR3DL2_Y398]	Satisfied
DQNVEYKGTVW [FHL1_Y117]	Satisfied
NHYKRYNLCAE [PTEN_Y68_I67R]	Not satisfied
SMAKYYASGIA [ACADSB_Y373_E376G]	Not satisfied
KLKRSYPSPDI [USP8_Y717_S718P]	Not satisfied
GVRTIYTIDGS [DCLK2_Y124]	Not satisfied
KQRKEYMHRWQ [IQGAP2_Y710_R714W]	Satisfied
KNRDVYSSDYF [USP24_Y2134]	Satisfied
KNSFKYFMSDD [ATRX_Y203_C200S_YF]	Not satisfied
NHQFDYTFHWT [CSNK1A1_Y294_D297H_YF]	Satisfied
GESKDYALHVG [SVIL_Y185]	Not satisfied
GHEFIYVDPMQ [PDGFRA_Y574_YF]	Satisfied
EERKTYVNTTL [TEK_Y1102]	Not satisfied
YHLLPYTVRAM [PARS2_Y93]	Satisfied
QNTGVYFDLFG [PTPN11_Y62_D61V_YF]	Satisfied
ILGRYYERGSI [PAX5_Y73_T75R]	Not satisfied
ARKWGYTVKGI [OAT_Y158]	Not satisfied
YQLPYYNMVPS [BMPR1A_Y458]	Satisfied
PVQAAYQQVVA [HBB_Y131_K133Q]	Satisfied
TFEFRYLEDQD [CNOT3_Y746_R750Q_YF]	Satisfied
AEMKRYSESSS [RAI14_Y869_A870S]	Not satisfied
DGFIDYAEFAK [MCFD2_Y138_YF]	Not satisfied
IVKAYYVHARA [AIPL1_Y268_R270H]	Not satisfied
DVFLKHLNFAT [PDE6B_Y212_Y212H]	Not satisfied
LADKPYTFEDY [FXN_Y118]	Satisfied
WLFFRYLPIGC [ATP2A2_Y836_A838P]	Satisfied
